Numbers sourced from patent US9416126B2.

The following compounds are shown together with reported pIC50 values.
TESTED_TARGET: LRRK2(G2019S mutation, GST-LRRK2(amino acids 970-2527)) (Homo sapiens (Human), UniProt Q5S007, G2019S)
Sequence (Q5S007 970-2527 G2019S): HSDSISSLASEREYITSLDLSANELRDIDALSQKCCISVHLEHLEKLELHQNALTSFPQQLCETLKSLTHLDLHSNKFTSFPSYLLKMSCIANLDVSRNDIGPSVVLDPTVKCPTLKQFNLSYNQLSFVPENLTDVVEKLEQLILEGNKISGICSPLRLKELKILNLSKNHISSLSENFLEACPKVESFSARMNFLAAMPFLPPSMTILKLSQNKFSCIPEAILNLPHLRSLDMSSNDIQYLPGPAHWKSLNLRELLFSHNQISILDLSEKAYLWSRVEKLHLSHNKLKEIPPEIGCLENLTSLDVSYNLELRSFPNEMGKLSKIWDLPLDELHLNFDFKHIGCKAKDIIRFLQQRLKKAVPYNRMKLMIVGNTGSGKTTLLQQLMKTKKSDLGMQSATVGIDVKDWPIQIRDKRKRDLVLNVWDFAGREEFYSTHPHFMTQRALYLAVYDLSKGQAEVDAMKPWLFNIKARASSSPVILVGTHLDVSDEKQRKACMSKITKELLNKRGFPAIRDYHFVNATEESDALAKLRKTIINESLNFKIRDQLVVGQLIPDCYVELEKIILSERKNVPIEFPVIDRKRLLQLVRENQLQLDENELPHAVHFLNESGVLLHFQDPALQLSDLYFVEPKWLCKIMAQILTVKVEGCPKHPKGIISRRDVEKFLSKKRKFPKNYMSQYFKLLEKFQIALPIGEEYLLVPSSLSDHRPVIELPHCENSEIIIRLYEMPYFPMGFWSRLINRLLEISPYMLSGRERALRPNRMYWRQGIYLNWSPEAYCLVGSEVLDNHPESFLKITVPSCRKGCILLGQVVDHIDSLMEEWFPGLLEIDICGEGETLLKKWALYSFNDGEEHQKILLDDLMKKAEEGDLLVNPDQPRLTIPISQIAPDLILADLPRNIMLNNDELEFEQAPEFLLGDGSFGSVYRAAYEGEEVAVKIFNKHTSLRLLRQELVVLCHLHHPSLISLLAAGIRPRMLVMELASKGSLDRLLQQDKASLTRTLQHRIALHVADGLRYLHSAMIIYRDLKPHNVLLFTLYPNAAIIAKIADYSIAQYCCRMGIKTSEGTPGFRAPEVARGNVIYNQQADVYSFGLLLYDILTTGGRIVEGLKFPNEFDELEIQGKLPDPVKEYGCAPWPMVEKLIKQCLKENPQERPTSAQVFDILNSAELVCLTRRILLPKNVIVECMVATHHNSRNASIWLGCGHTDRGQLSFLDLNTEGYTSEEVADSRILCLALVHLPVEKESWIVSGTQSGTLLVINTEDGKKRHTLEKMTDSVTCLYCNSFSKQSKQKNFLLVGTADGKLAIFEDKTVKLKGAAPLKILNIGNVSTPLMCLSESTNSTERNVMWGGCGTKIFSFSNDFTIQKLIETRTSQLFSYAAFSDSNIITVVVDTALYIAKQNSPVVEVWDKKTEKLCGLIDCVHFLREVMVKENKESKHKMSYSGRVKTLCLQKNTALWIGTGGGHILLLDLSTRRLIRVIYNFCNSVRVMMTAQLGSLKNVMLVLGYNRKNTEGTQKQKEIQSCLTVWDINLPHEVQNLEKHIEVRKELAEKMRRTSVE
TEST_DETAILS: LRRK2 Km ATP LanthaScreen Assay
Format: biochemical
CONDITION: Km ATP (184 μM ATP solution), G2019S LRRK2, mean IC50
pIC50: −log10 of the molar value.
METRIC_NAME: pIC50

# COMPOUND, METRIC_NAME, MEAS_VALUE
measured = [
    ("COC[C@H](C)Oc1ccc2[nH]nc(-c3cc(N4CCC5(CCCO5)CC4)ncn3)c2c1", "pIC50", 8.69),
    ("Cn1cc(-c2cc3c(-c4cc(N5CCC(F)(F)C5)ncn4)n[nH]c3cc2F)cn1", "pIC50", 7.15),
    ("CC(C)Oc1cc2c(-c3cc(N4CCN(C)C(=O)C4)ncn3)n[nH]c2cc1F", "pIC50", 8.66),
    ("CC(C)Oc1ccc2[nH]nc(-c3cc(N4CC(n5cccn5)C4)ncn3)c2c1", "pIC50", 7.65),
    ("CC(C)Oc1ccc2[nH]nc(-c3cc(N4CCOCC4C)ncn3)c2c1 (stereo not shown)", "pIC50", 7.70),
    ("CCCN1CCN(c2cc(-c3n[nH]c4cc(F)c(OC(C)C)cc34)ncn2)CC1=O", "pIC50", 8.56),
    ("CO[C@H]1CN(c2cc(-c3n[nH]c4ccc(OC(C)C)cc34)ncn2)C[C@@H]1O [Example D1]", "pIC50", 8.00),
    ("CO[C@H]1CCN(c2cc(-c3n[nH]c4ccc(-c5cnn(C)c5)cc34)ncn2)C1", "pIC50", 8.59),
    ("CCOc1ccc2[nH]nc(-c3cc(N4CCN(C)CC4)ncn3)c2c1", "pIC50", 7.57),
    ("CCCN1CCN(c2cc(-c3n[nH]c4ccc(OC(C)C)cc34)ncn2)CC1", "pIC50", 8.09),
    ("COCCOc1ccc2[nH]nc(-c3cc(N4C[C@@H](C)O[C@@H](C)C4)ncn3)c2c1", "pIC50", 7.12),
    ("CC(C)Oc1cc2c(-c3cc(N4CCOCC4C)ncn3)n[nH]c2cc1F (stereo not shown)", "pIC50", 8.26),
    ("CC(O)C1CCN(c2cc(-c3n[nH]c4ccc(-c5cnn(C)c5)cc34)ncn2)C1 (stereo not shown)", "pIC50", 8.64),
    ("CCS(=O)(=O)N1CCN(c2cc(-c3n[nH]c4cc(F)c(OC(C)C)cc34)ncn2)CC1", "pIC50", 8.65),
    ("CC(C)Oc1cc2c(-c3cc(N4C[C@@H](C)N(C)[C@@H](C)C4)ncn3)n[nH]c2cc1F", "pIC50", 8.88),
    ("COC(=O)N1CCN(c2cc(-c3n[nH]c4ccc(OC(C)C)cc34)ncn2)CC1", "pIC50", 7.99),
    ("Cn1cc(-c2cc3c(-c4cc(N5CCN(C6CC6)CC5)ncn4)n[nH]c3cc2F)cn1", "pIC50", 7.75),
    ("CCOc1ccc2[nH]nc(-c3cc(N4CCN(CC)CC4)ncn3)c2c1", "pIC50", 7.90),
    ("COc1ccc2[nH]nc(-c3cc(N4CC5CCC(C4)O5)ncn3)c2c1", "pIC50", 6.83),
]

* * *

TESTED_TARGET: LRRK2(G2019S mutation, GST-LRRK2(amino acids 970-2527)) (Homo sapiens (Human), UniProt Q5S007, G2019S)
TEST_DETAILS: LRRK2 Km ATP LanthaScreen Assay
Format: biochemical
CONDITION: Km ATP (184 μM ATP solution), G2019S LRRK2, mean IC50
METRIC_NAME: IC50 (nM)

# CHEMICAL_STRUCTURE, MEAS_VALUE
data = [
    ("CC(C)Oc1ccc2[nH]nc(-c3cc(N4CCOCC4)ncn3)c2c1", 5.95),
    ("CC(C)Oc1cc2c(-c3cc(N4CC[C@H](N)C4)ncn3)n[nH]c2cc1F", 10.4),
    ("Cn1cc(-c2cc3c(-c4cc(N5CCc6nccnc6C5)ncn4)n[nH]c3cc2F)cn1", 11.1),
    ("CC(C)Oc1ccc2[nH]nc(-c3cc(N4CCN(c5nncs5)CC4)ncn3)c2c1", 17),
]
